# half-life annotations
- TEST_METHOD_NOTES: Half life at pH 10
- Format: ADME
- STATED_CONDITIONS: buffer

MOL_SMILES | half-life, h
C[C@H]1[C@H](NC(=O)Cc2ccccc2)C(=O)N1OCC(=O)O | 2.2
C[C@H]1[C@H](NC(=O)Cc2ccccc2)C(=O)N1SCC(=O)[O-].[K+] | 0.95

###

- TEST_METHOD_NOTES: Half life at pH 11
- Type: ADME
- STATED_CONDITIONS: buffer

MOL_SMILES | RESULT_UNIT | half-life
C[C@@H]1NC(=O)[C@H]1NC(=O)OCc1ccccc1 | min | 1440
